From: the supplement of paper PMC10567573

Please provide measured protein stability index for the entries that follow.
B1: COX4I1 (parent)
chain: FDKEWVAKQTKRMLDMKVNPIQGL

variants of: B1; assay: protein stability index of a GFP-peptide fusion (GPS, HEK-293T) (PSI 1-6); higher = more stable; conditions: c terminus: a fixed tail appended;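 further: lentivirally expressed fusions sorted by FACS into six bins by GFP to DsRed ratio, PSI derived from sequencing read proportions per bin multiplied by bin number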

The examples below pair each entry with its known result.
# seq-text, protein stability index
data = [
    ("FDKEWVAKQTIRMLDMKVNPIQGL [K11I]", 1.8),
    ("FDKEWVAKQTKRMLDMVVNPIQGL [K17V]", 2.03),
]

Required: protein stability index, one value per variant below.
1. FDKEWAAKQTKRMLDMKVNPIQGL [V6A]
2. FDKEWVAKQTKRMLDMKVNPIQFL [G23F]
3. FDKDWVAKQTKRMLDMKVNPIQGL [E4D]
4. FDKEWSAKQTKRMLDMKVNPIQGL [V6S]
5. FDKEWVAKQTKRMLDHKVNPIQGL [M16H]
6. FDKEWVAKQTKRMLDMKVPPIQGL [N19P]

Output line:
[3.39, 2.36, 1.9, 1.96, 1.42, 2.32]

Please look at the items below and tell me protein stability index for each one, in order.
1. FDKEWVAKQTKRMLDMKVNPIQGP [L24P]
2. FDKEWVAKQTKKMLDMKVNPIQGL [R12K]
3. FDKEQVAKQTKRMLDMKVNPIQGL [W5Q]
4. FDKEWVAKQTKMMLDMKVNPIQGL [R12M]
5. FDKEWLAKQTKRMLDMKVNPIQGL [V6L]

Output line:
[2.08, 1.81, 3.85, 1.6, 2.37]

Give measured protein stability index for every item shown.
1. FDKEWVAKQTKRMLDMKVNPLQGL [I21L]
2. FDKEWVAKQTKRMLDMKVEPIQGL [N19E]

Output line:
1.64
1.9
